// provenance: patent US20260184782A1

target: T1, human TIGIT-Fc (human, UniProt Q495A1 22-141, limits assumed)
T1 construct: not shown: Fc; not described
T1 sequence (looked up): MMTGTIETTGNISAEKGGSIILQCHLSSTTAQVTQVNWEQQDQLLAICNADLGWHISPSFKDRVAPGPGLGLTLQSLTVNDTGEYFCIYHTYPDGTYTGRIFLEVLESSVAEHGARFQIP
protocolDescription: CD155 competition ELISA, single point; note: test concentration or dose not given here
property: OD (450 nm) (OD)

>>> resultvalue("TIGIT-SC189 (Fc fusion, VHH-Fc) VHH: EVQLVESGGGLVQPGGSLRLSCAASGNTFSGGFMGWFRQAPGKEREWVASVLRGGYTWYADSVKGRFTISADNSKNTAYLQMNSLKPEDTAVYYCVTDVGAPDYWGQGTLVTVSS")
0.486
>>> resultvalue("TIGIT-SC159 (Fc fusion, VHH-Fc) VHH: EVQLVESGGGLVQPGGSLRLSCAASGFTFDRSWMGWFRQAPGKEREWVASVLRGGYTWYADSVKGRFTISADNSKNTAYLQMNSLKPEDTAVYYCAREGRSSSPWFDPWGQGTLVTVSS")
0.749
